tested on: galium (catchweed bedstraw, Galium aparine); assay: Test D pre-/postemergence plant response; format: in vivo; conditions: Postemergence, 62 g ai/ha; scale 0 to 100, 0 no effect, 100 complete control
Text: […]
Mark each entry T if its Plant response rating, Galium sits below 70, and F for all others.

Compound | Assayed target | Class label
Cc1cc(-c2c(F)cccc2Oc2ncc(Cl)cn2)on1 [Compound 229] | galium (catchweed bedstraw, Galium aparine) | T
Clc1cnc(Oc2ccccc2-c2cc(C3CC3)on2)nc1 [Compound 183] | galium (catchweed bedstraw, Galium aparine) | F
FC(F)c1cc(-c2c(Cl)cccc2Oc2ncc(Cl)cn2)on1 [Compound 120] | galium (catchweed bedstraw, Galium aparine) | F
FC(F)(F)c1cc(-c2c(Br)cccc2Oc2ncc(Cl)cn2)no1 [Compound 170] | galium (catchweed bedstraw, Galium aparine) | T
Fc1cccc(Oc2ncc(Br)cn2)c1-c1cc(C(F)F)on1 [Compound 118] | galium (catchweed bedstraw, Galium aparine) | F

Measured values drawn from patent US10131652B2 for this set.
